Biological target: JAK2 (Homo sapiens, UniProt O60674)
Construct: 5 μl of catalytic domain recombinant Kinase enzyme+Tyr peptide substrate (Invitrogen, CA)
Sequence (O60674 849-1124 limits assumed): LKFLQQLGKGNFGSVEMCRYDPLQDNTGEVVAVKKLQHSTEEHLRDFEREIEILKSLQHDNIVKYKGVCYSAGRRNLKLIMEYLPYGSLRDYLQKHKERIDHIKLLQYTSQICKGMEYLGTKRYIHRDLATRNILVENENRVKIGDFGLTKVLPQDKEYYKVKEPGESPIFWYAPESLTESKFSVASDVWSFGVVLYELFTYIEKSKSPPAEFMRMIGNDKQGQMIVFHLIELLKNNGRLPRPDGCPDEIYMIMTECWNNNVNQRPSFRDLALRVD
Assay: Z'-LYTE kinase assay JAK2
observed.property: IC50

Query string: What IC50 value was documented for this compound, "CCC(=O)N1CCC(c2ccc(Nc3cc(NCC4(O)CCCC4)c(C(N)=O)cn3)cc2)CC1" ?
Result string: 100 to 1000 nM

Query string: # get_value(readout='IC50', item= "Cc1cc(Nc2cc(NCc3cccc4cc[nH]c34)c(C(N)=O)cn2)ccc1C(=O)N1CCC1" )
Result string: 10 to 100 nM

Query string: Item under review: "CCC(=O)N1CCC(c2ccc(Nc3cc(NCc4cccnc4)c(C(N)=O)cn3)cc2)CC1" . Reported IC50?
Result string: 100 to 1000 nM

Query string: Which IC50 is listed for "Cc1cc(Nc2cc(NCc3ccccc3)c(C(N)=O)cn2)ccc1C(=O)N1CC=CC1" ?
Result string: 10 to 100 nM

Query string: What value of IC50 has been recorded for this entry: "N#Cc1ccc(Nc2cc(NCc3ccccc3)c(C(N)=O)cn2)cc1"
Result string: > 1000 nM

Query string: Report IC50 for "NC(=O)c1cnc(Nc2ccc(C(=O)NCC(F)(F)F)cc2)cc1NCc1cncc(F)c1" please.
Result string: 100 to 1000 nM

Query string: Suppose we examine the compound "CNC(=O)[C@@H]1CCCN(c2ccc(Nc3cc(NCc4ccccc4)c(C(N)=O)cn3)cc2)C1" ; what IC50 value has been reported?
Result string: 100 to 1000 nM
